- Test: gradient 5% acetonitrile 3 min, to 50% in 2 min, to 85% in 15 min, held 3 min, 100 µL/min
- Conditions: column: Zorbax Extend-C18 2.1 x 50 mm; eluents: water / acetonitrile, 0.1% formic acid
Lab note: cut-off is 800 s. Strictly less in RP-LC retention time is rule met. Exactly 800 s or more is rule not met.

- Compound: "CCn1cc(S(=O)(=O)Nc2cc(F)ccc2C)c2cccnc21"
  Class name: "rule not met"
- Compound: "O=[N+]([O-])c1ccc(-c2nc(NC3CCCCC3)c3ccccc3n2)cc1"
  Class name: "rule not met"
- Compound: "COc1ccc(CN2CCc3nc(N4CCOCC4)ncc3C2)c(OC)c1"
  Class name: "rule met"
- Compound: "Cc1ccc(CNC(=O)C2CCN(S(=O)(=O)c3cc(C(=O)N4CCOCC4)cs3)CC2)cc1"
  Class name: "rule met"
- Compound: "Cc1ccc(-n2c(C)c(C)c3c(=O)n(CC(=O)N4CCc5ccccc54)cnc32)cc1"
  Class name: "rule not met"
- Compound: "Cc1cc(Cl)ccc1N1C(=O)CN(S(C)(=O)=O)CC1(C)C(=O)NC1CCCCCCC1 (stereo not drawn)"
  Class name: "rule not met"
- Compound: "COC[C@@H]1CN(c2cnccn2)C[C@H]1C(=O)NCC1CC1"
  Class name: "rule met"
- Compound: "CCCn1c2ccccc2c2cnn(CC(=O)NCCN(C)Cc3ccccc3)c(=O)c21"
  Class name: "rule met"
- Compound: "Cc1ccc(-c2csc3c(=O)n(Cc4cc(=O)n5ccccc5n4)cnc23)cc1"
  Class name: "rule not met"
- Compound: "Cc1ccn2cc(-c3ccc(NS(=O)(=O)c4ccc5cccc6c5c4CC6)cc3)nc2n1"
  Class name: "rule met"
- Compound: "O=C(c1nc(-c2ccc(Cl)cc2)n2c1CCCCC2)N1CCN(c2ncccn2)CC1"
  Class name: "rule met"
- Compound: "Cc1nc(-c2cccc(-c3noc(COc4ccc(F)cc4)n3)c2)cs1"
  Class name: "rule not met"
- Compound: "CC(=O)Nc1ccc(S(=O)(=O)Nc2ccc3c(c2)CCC(=O)N3C)cc1"
  Class name: "rule met"
- Compound: "Cc1cc(C)cc(S(=O)(=O)N2CCc3c(c(-c4nnc(-c5ccccc5F)o4)nn3C)C2)c1"
  Class name: "rule not met"
- Compound: "O=C(NCC(c1ccco1)N1CCN(c2ccc(F)cc2)CC1)c1cnccn1 (stereo not drawn)"
  Class name: "rule met"
- Compound: "CCn1cc(CCN2CCN(S(=O)(=O)c3ccc(C)cc3)CC2)c2cccnc21"
  Class name: "rule met"
- Compound: "CCc1cccc(NC(=O)COc2cc(C)nc(N3CCN(c4ccccc4)CC3)n2)c1"
  Class name: "rule not met"
- Compound: "C=C1C(=O)O[C@@H]2[C@H]3O[C@]3(C)CCC=C(C)CC[C@@H]12"
  Class name: "rule not met"
- Compound: "CS(=O)(=O)N1CCOc2ccc(CCC(=O)NC3CCS(=O)(=O)C3)cc2C1 (stereo not drawn)"
  Class name: "rule met"
- Compound: "COc1ccc(-c2cc(N3CCC(NC(=O)c4ccc(N(C)C)cc4)C3)n[nH]2)cc1 (stereo not drawn)"
  Class name: "rule met"
- Compound: "O=C(NCc1cccc(Cl)c1)C1CCCN(c2nccnc2Sc2ccccc2)C1 (stereo not drawn)"
  Class name: "rule not met"
- Compound: "Cc1cccc(N2CCN(C(=O)c3cn(-c4ccc(NC(=O)C5CC5)cn4)cn3)CC2)c1C"
  Class name: "rule not met"
- Compound: "CCCCc1ccc(NC(=O)Cn2cnc3c(sc4nc(-c5ccccc5)ccc43)c2=O)cc1"
  Class name: "rule not met"
- Compound: "Cc1cc(Nc2ccc(NC(=O)Nc3ccccc3)cc2)nc(N2CCOCC2)n1"
  Class name: "rule met"
- Compound: "CN(C)S(=O)(=O)c1ccc2c(c1)N(CC(=O)N1CCN(c3ccccn3)CC1)CCS2"
  Class name: "rule met"
- Compound: "CCc1ccc(NC(=O)Cn2nc3n(c2=O)CCCC3)cc1"
  Class name: "rule met"
- Compound: "CN1CCC(N2CCN(C(=O)CCC3CCCN(c4cc(NC5CC5)ncn4)C3)CC2)CC1 (stereo not drawn)"
  Class name: "rule met"
- Compound: "COc1ccc(-c2cc3nn(CC(=O)NC(C)(C)C)c(=O)n3c(C)n2)cc1"
  Class name: "rule not met"
- Compound: "CC(C)C(=O)NC(C)c1nc(-c2ccccc2Cl)no1 (stereo not drawn)"
  Class name: "rule not met"
- Compound: "COc1ccc(NC(C)=O)cc1NC(=O)C1CC(=O)N(c2n[nH]c3cccc(F)c23)C1 (stereo not drawn)"
  Class name: "rule met"
- Compound: "O=C1CCCCC(CNC(=O)C2(c3ccccc3)CC2)N1 (stereo not drawn)"
  Class name: "rule met"
- Compound: "COCc1nc(-c2ccc(OC3CN(Cc4ccncc4)C3)cc2)no1"
  Class name: "rule met"
- Compound: "O=C(c1ccc(N2C[C@H]3C[C@H](C2)[C@H]2CCCC(=O)N2C3)nc1)N1CCC2(CC1)OCCO2"
  Class name: "rule met"
- Compound: "Cc1cc(=O)n(CC(=O)Nc2cc(F)ccc2F)c(N2CCCC2)n1"
  Class name: "rule met"

====

- Test: gradient 5% acetonitrile 3 min, to 50% in 2 min, to 85% in 15 min, held 3 min, 100 µL/min
- Conditions: column: Zorbax Extend-C18 2.1 x 50 mm; eluents: water / acetonitrile, 0.1% formic acid

- Compound: "O=c1c2cc(-c3ccc4c(c3)OCO4)nn2ccn1Cc1nc(-c2ccc(F)cc2)no1"
  Units symbol: "s"
  RP-LC retention time: 1020
- Compound: "CCC(=O)N1CC(=O)N(CC)C2(CCOCC2)C1"
  Units symbol: "s"
  RP-LC retention time: 561
- Compound: "O=S(=O)(NCCc1ccccn1)c1ccc2ccccc2c1"
  Units symbol: "s"
  RP-LC retention time: 574
- Compound: "Nc1cc(C(=O)Nc2ccccc2F)ccc1N1CC2CC(C1)c1cccc(=O)n1C2 (centres undefined)"
  Units symbol: "s"
  RP-LC retention time: 740
- Compound: "COc1ccc(-n2ccc(=O)c(-c3nc(-c4ccc(Cl)c(F)c4)no3)n2)cc1"
  Units symbol: "s"
  RP-LC retention time: 993
- Compound: "COc1ccc(-c2noc(CC3CCN(C(=O)c4cncc(Br)c4)CC3)n2)cc1"
  Units symbol: "s"
  RP-LC retention time: 909
- Compound: "Cc1c(Cl)cccc1N1C(=O)CN(S(C)(=O)=O)CC1(C)C(=O)NC1CCCCC1 (centres undefined)"
  Units symbol: "s"
  RP-LC retention time: 892
- Compound: "CC(=O)c1cccc(C(=O)NC2(c3nc(C)no3)CCCCC2)c1"
  Units symbol: "s"
  RP-LC retention time: 798
- Compound: "COC(=O)c1c(C)[nH]c(C(=O)N2CCCC(C(=O)N3CCN(c4ccccc4)CC3)C2)c1C (centres undefined)"
  Units symbol: "s"
  RP-LC retention time: 790
- Compound: "COC(=O)c1cccc(NC(=O)N2C[C@@H]3C[C@H]2C[C@@H]3NC(=O)c2ccccc2)c1"
  Units symbol: "s"
  RP-LC retention time: 736
- Compound: "Cn1cc2c3c(cccc31)CN(C(=O)c1cc(F)ccc1Cl)CC2"
  Units symbol: "s"
  RP-LC retention time: 938
- Compound: "CCOc1nc2ccccc2nc1N1CCCC(C(=O)Nc2ccccc2C(C)C)C1 (centres undefined)"
  Units symbol: "s"
  RP-LC retention time: 1230
- Compound: "Cn1cc(-c2cc3n(n2)CCCN3C(=O)CCC(=O)NCCC2=CCCCC2)c2ccccc21"
  Units symbol: "s"
  RP-LC retention time: 920
- Compound: "c1ccc(-c2noc(NCCc3ccsc3)n2)cc1"
  Units symbol: "s"
  RP-LC retention time: 969
- Compound: "Cc1cc(C)cc(Oc2nccn3c(=O)n(CC(=O)NC4CCCCC4)nc23)c1"
  Units symbol: "s"
  RP-LC retention time: 905
- Compound: "Cc1oc(-c2ccc(NC(=O)C3CCCCC3)cc2)nc1Cn1cccn1"
  Units symbol: "s"
  RP-LC retention time: 924
- Compound: "CCCCOC(=O)c1ccc(Nc2ncnc(N)c2[N+](=O)[O-])cc1"
  Units symbol: "s"
  RP-LC retention time: 930
- Compound: "CC1CCN(CCNC(=O)c2nc(CCS(=O)(=O)c3ccc(F)cc3)no2)CC1"
  Units symbol: "s"
  RP-LC retention time: 620
- Compound: "COc1ccc(CCS(=O)(=O)N(Cc2ccsc2)C2CC2)cc1"
  Units symbol: "s"
  RP-LC retention time: 1000
- Compound: "CC(=O)OC1CCN(C(=O)c2cccc(C#N)c2)CC1"
  Units symbol: "s"
  RP-LC retention time: 706
- Compound: "Cc1nnc(N2C(=O)C(O)=C(C(=O)c3ccco3)C2c2ccc([N+](=O)[O-])cc2)s1 (centres undefined)"
  Units symbol: "s"
  RP-LC retention time: 793
- Compound: "COc1ccc(-n2cc(C(=O)OCCc3ccccn3)c3ccccc3c2=O)cc1"
  Units symbol: "s"
  RP-LC retention time: 714
- Compound: "O=C(NCc1ccc(-c2noc(-c3ccc(F)cc3F)n2)s1)C1CC1"
  Units symbol: "s"
  RP-LC retention time: 893
- Compound: "COCC(C)(O)CNC(=O)c1cccnc1SC (centres undefined)"
  Units symbol: "s"
  RP-LC retention time: 577
- Compound: "CCOc1ccccc1-n1ccn(Cc2nc(-c3ccc(C)cc3)no2)c(=O)c1=O"
  Units symbol: "s"
  RP-LC retention time: 920
- Compound: "Cc1ncsc1C1N(C2CCN(C(=O)C3CC3)CC2)C(=O)C12CCCC2 (centres undefined)"
  Units symbol: "s"
  RP-LC retention time: 696
- Compound: "O=C(Nc1nccs1)C1CCCN(c2ncnc3c2nc2n3CCCCC2)C1 (centres undefined)"
  Units symbol: "s"
  RP-LC retention time: 730
- Compound: "Cc1cc(C(=O)OCc2cc(-c3ccc4c(c3)OCCO4)on2)c(C)o1"
  Units symbol: "s"
  RP-LC retention time: 1070
- Compound: "CCOc1ccc(-n2c(N3CCN(C)CC3)nc3cc(C(=O)OC)ccc3c2=O)cc1"
  Units symbol: "s"
  RP-LC retention time: 645
- Compound: "CN(C)c1cc(C(=O)NC2CC2)c2cccc(Cl)c2n1"
  Units symbol: "s"
  RP-LC retention time: 746
- Compound: "COCCCNC(=O)C1CCN(C(=O)c2ccc(-n3c(C)cc4ccccc43)s2)CC1"
  Units symbol: "s"
  RP-LC retention time: 854
- Compound: "COc1ccccc1CNC(=O)CCc1nnc2c3cc(-c4ccccc4)nn3ccn12"
  Units symbol: "s"
  RP-LC retention time: 750
- Compound: "Cc1ccccc1NC(=O)NC1CCN(c2ccccc2)C1=O (centres undefined)"
  Units symbol: "s"
  RP-LC retention time: 781
- Compound: "CCOC(=O)c1c(C)c(CCC(=O)NCc2ccc3c(c2)OCO3)n(C)c1C"
  Units symbol: "s"
  RP-LC retention time: 836
- Compound: "CCN(CC)c1ccc(Nc2nc(-c3ccc(OC)cc3)cs2)cc1"
  Units symbol: "s"
  RP-LC retention time: 742
- Compound: "CC1CCN(c2ccc(-c3noc(CN(C)C4CCCCC4)n3)cn2)CC1"
  Units symbol: "s"
  RP-LC retention time: 720
- Compound: "CC(C)C(=O)Nc1cccc(N2CC(C(=O)Nc3ccc(C(C)C)cc3)CC2=O)c1 (centres undefined)"
  Units symbol: "s"
  RP-LC retention time: 886
- Compound: "Cc1cc2c(cc1S(=O)(=O)N1CCCC1C(=O)NCc1ccc(F)cc1)OCC(=O)N2 (centres undefined)"
  Units symbol: "s"
  RP-LC retention time: 712
- Compound: "COc1ccccc1CNC(=O)C1CCCN(c2nnc3cccc(C)n23)C1 (centres undefined)"
  Units symbol: "s"
  RP-LC retention time: 688
